Origin of measurements: patent US20070020327A1

- system: HLA-A*0301 (human)
- procedure-details: competition with 125I-labelled standard peptide for purified HLA, gel filtration
- details: scale: ratio
test-readout: binding affinity ratio
One number for each entry.

binder | binding affinity ratio
PSKAWGEVKR (modifications not checked) [… (PSM, position 721)] | 0.0003

Take each entry in turn and give its binding affinity ratio.
1. PANEYAYRR (modifications not checked) [… (PSM, position 273)]
2. VLTAAHCIR (modifications not checked) [… (PSA, position 56)]
3. TLRGAVEPDR (modifications not checked) [… (PSM, position 361)]
4. PAELTDAVK (modifications not checked) [… (PSA, position 125)]
5. TLVFRHGDR (modifications not checked) [… (PAP, position 39)]
6. WATEDTMTK (modifications not checked) [… (PAP, position 226)]

[0.0001, 0.0002, 0.0003, 0.0002, 0.0006, 0.0006]

Suppose we examine the binder SLYESWTKK (modifications not checked) [… (PSM, position 492)] ; what binding affinity ratio value has been reported?
1
